The compounds listed here are annotated with their Bliss excess.
- Tested on: NCI-H64 (Small Cell Lung Carcinoma);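 further: after 72 h of two-drug dosing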
- assayOverview: Bliss excess, mean over the matrix (fraction); higher = more synergy
Give the figure by itself; no unit, no explanation.

// worked examples, Bliss excess included
- compound: "C[C@@H]1COCCN1c1cc(C2([S@](C)(=N)=O)CC2)nc(-c2ccnc3[nH]ccc23)n1 [AZD6738] + Nc1ccn([C@@H]2O[C@H](CO)[C@@H](O)C2(F)F)c(=O)n1 [Gemcitabine] (first compound max 10 µM, 7x7, partner max 0.3 µM)"
  Bliss excess: 0.0857
- compound: "CN(CCO)CC[C@H](CSc1ccccc1)Nc1ccc(S(=O)(=O)NC(=O)c2ccc(N3CCC([C@@H](O)c4ccccc4-c4ccc(Cl)cc4)CC3)cc2)cc1S(=O)(=O)C(F)(F)F [AZD4320] + C1CN(CCC1(C(=O)N[C@@H](CCO)C2=CC=C(C=C2)Cl)N)C3=NC=NC4=C3C=CN4 [Capivasertib] (first compound max 1 µM, 7x7, partner max 3 µM)"
  Bliss excess: -0.028

Attention now shifts to the item below.
input: Reported Bliss excess for NCI-H64 (Small Cell Lung Carcinoma), given CN(CCO)CC[C@H](CSc1ccccc1)Nc1ccc(S(=O)(=O)NC(=O)c2ccc(N3CCC([C@@H](O)c4ccccc4-c4ccc(Cl)cc4)CC3)cc2)cc1S(=O)(=O)C(F)(F)F [AZD4320] + Nc1ccn([C@@H]2O[C@H](CO)[C@@H](O)C2(F)F)c(=O)n1 [Gemcitabine] (first compound max 1 µM, 7x7, partner max 0.3 µM) ?
output: 0.0845
